Recorded MC4R selectivity vs MC3R by entry
- target of assay: human MC4R (Homo sapiens, UniProt P32245)
- Construct: host or cells: HEK-293 cells stably expressing the GScAMP22F split-luciferase cAMP sensor and hMC4R, G418 selection
- Sequence (P32245 whole entry): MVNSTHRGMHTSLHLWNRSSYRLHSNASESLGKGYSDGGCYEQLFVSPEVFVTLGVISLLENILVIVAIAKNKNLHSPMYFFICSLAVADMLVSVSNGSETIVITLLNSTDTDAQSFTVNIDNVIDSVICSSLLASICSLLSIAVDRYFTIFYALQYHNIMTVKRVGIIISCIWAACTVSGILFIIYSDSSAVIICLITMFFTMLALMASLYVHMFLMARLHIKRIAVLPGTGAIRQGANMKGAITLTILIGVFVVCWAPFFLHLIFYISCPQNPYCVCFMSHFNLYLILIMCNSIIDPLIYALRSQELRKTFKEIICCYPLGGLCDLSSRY
- experimental protocol: split-luciferase cAMP sensor assay, agonist mode (measurement window 1), hMC4R
- Format: cell-based
- Description: The stable cell lines were grown and maintained in selection media consisting of Dulbecco's modified Eagle media (DMEM) with 4.5 g/l D-glucose, and 4 mM L-glutamine (Thermo Fisher Scientific, Waltham, MA), supplemented with 10% fetal bovine serum, 100 units/ml penicillin, 100 μg/ml streptomycin, 2.5 μg/ml amphotericin B, 200 μg/ml hygromycin B (for positive selection of the GScAMP22f luciferase reporter), and Geneticin™ (G418) 700 μg/ml (for MC3R or MC4R selection). […]
Positions of bridges follow the written chain, without caps; N, C: chain ends. Non-standard residues stand in square brackets, D forms with d. Residues, ends and D or L forms follow the SMILES beside them. Phe(4-Br) = N[C@@H](Cc1ccc(Br)cc1)C(=O)O; dPhe(4-Br) = N[C@H](Cc1ccc(Br)cc1)C(=O)O; Nle = CCCC[C@H](N)C(=O)O
// no unit, no text: just the number

Request: What value of MC4R selectivity vs MC3R has been recorded for this entry: CC(=O)N[C@@H](CCCNC(=N)N)C(=O)N[C@H]1CSSC[C@@H](C(N)=O)NC(=O)[C@H](Cc2ccccc2)NC(=O)[C@H](CCCNC(=N)N)NC(=O)[C@@H](Cc2ccc(Br)cc2)NC(=O)[C@H](CCCNC(=N)N)NC(=O)[C@@H](C)NC1=O [CTX-1258] (Ac-RC[dA]R[dPhe(4-Br)]RFC-NH2; disulfide 2-8)
Result: 3.04

Request: Query CC(=O)N[C@@H](CCCNC(=N)N)C(=O)N[C@H]1CSSC[C@@H](C(N)=O)NC(=O)[C@H](Cc2c[nH]c3ccccc23)NC(=O)[C@H](CCCNC(=N)N)NC(=O)[C@H](Cc2ccc(Br)cc2)NC(=O)[C@H](CCCNC(=N)N)NC(=O)[C@@H](C)NC1=O [CTX-1212] (Ac-RC[dA]R[Phe(4-Br)]RWC-NH2; disulfide 2-8) next
Result: 0.07

Request: Query CCCC[C@H](NC(=O)[C@H](CCCNC(=N)N)NC(C)=O)C(=O)N[C@H]1CSSC[C@@H](C(N)=O)NC(=O)[C@@H](Cc2c[nH]c3ccccc23)NC(=O)[C@H](CCCNC(=N)N)NC(=O)[C@@H](Cc2ccc(Br)cc2)NC(=O)[C@H](CCCNC(=N)N)NC1=O [CTX-1232] (Ac-R[Nle]CR[dPhe(4-Br)]R[dW]C-NH2; disulfide 3-8 (inferred)) next
Result: 2.44

Source of measurements: patent US20240391954A1
